Test system: pigweed
Test: Test C pre-/postemergence test
Assay type: in vivo, Amaranthus retroflexus
Details: Postemergence, 125 g ai/ha; scale 0 to 100, 0 no effect, 100 complete control
Source text: Seeds of plant species selected from blackgrass (Alopecurus myosuroides), downy brome (Bromus tectorum), green foxtail (Setaria viridis), Italian ryegrass (Lolium multiflorum), wheat (Triticum aestivum), wild oat (Avena fatua), catchweed bedstraw (Galium aparine), Russian thistle (Salsola kali), […] […]
observation-type: Plant response rating, Pigweed
Field format: numeric only.

compound	reported-value
Cn1nc(C(F)(F)F)c(C[S+]([O-])c2cccc[n+]2[O-])c1OCC(F)(F)C(F)(F)F (stereo not drawn) [Compound 78]	30

## Input Retrieve Plant response rating, Pigweed on pigweed; query Cn1nc(C(F)(F)F)c(C[S+]([O-])c2cccc[n+]2[O-])c1OC(F)F (stereo not drawn) [Compound 3]
## Output 10

## Input Retrieve Plant response rating, Pigweed on pigweed; query Cn1nc(C(F)(F)C(F)(F)F)c(C[S+]([O-])c2cccc[n+]2[O-])c1OCC(F)(F)F (stereo not drawn) [Compound 79]
## Output 20

## Input Retrieve Plant response rating, Pigweed on pigweed; query CC(c1c(C(F)(F)F)nn(C)c1Cl)S(=O)(=O)c1ccc(Cl)c[n+]1[O-] (racemic) [Compound 40]
## Output 0

## Input Retrieve Plant response rating, Pigweed on pigweed; query Cn1nc(C(F)(F)F)c(C[S+]([O-])c2ccc(Cl)c[n+]2[O-])c1OC(F)F (stereo not drawn) [Compound 6]
## Output 0

## Input Retrieve Plant response rating, Pigweed on pigweed; query Cn1nc(C(F)(F)F)c(C[S+]([O-])c2ccc(F)c[n+]2[O-])c1OC(F)F (stereo not drawn) [Compound 58]
## Output 5

###

system: yellow nutsedge; assay: Test C pre-/postemergence test; format: in vivo, Cyperus esculentus; conditions: 62 g ai/ha, preemergence; scale 0 (no effect) to 100 (complete control)
observation-type: Nutsedge, Yellow plant response rating
Field format: numeric only.

The following molecules have reported results that may help.
molecule	system-tested	Nutsedge, Yellow plant response rating
Cn1nc(C(F)(F)F)c(CS(=O)(=O)c2ccc(Cl)c[n+]2[O-])c1OC(F)F [Compound 7]	yellow nutsedge	0
Cn1nc(C(F)(F)F)c(CS(=O)(=O)c2cccc[n+]2[O-])c1OC(F)F [Compound 4]	yellow nutsedge	100
Cc1cc[n+]([O-])c(S(=O)(=O)C(C)c2c(C(F)(F)F)nn(C)c2Cl)c1 (racemic) [Compound 14]	yellow nutsedge	70

Note: attention shifts to another entry.
## Input Identify the reported Nutsedge, Yellow plant response rating for the following entry. Cc1cc[n+]([O-])c(S(=O)(=O)C(C)c2c(C(F)(F)F)nn(C)c2OC(F)F)c1 (stereo not shown) [Compound 11]
## Output 98

###

tested on: common sowthistle; assay: Test F preemergence test; format: in vivo, Sonchus oleraceous; details: 62 g ai/ha, Preemergence; scale 0 to 100
observation-type: Sowthistle plant response rating
Field format: numeric only.

compound	observation-type	reported-value
Cn1nc(C(F)(F)F)c(C[S+]([O-])c2cccc[n+]2[O-])c1OC(F)F (stereo not drawn)	Sowthistle plant response rating	100
Cc1cc[n+]([O-])c(S(=O)(=O)Cc2c(C(F)(F)F)nn(C)c2OC(F)F)c1	Sowthistle plant response rating	100
Cc1cc[n+]([O-])c([S+]([O-])Cc2c(C(F)(F)F)nn(C)c2OC(F)F)c1 (stereo not drawn)	Sowthistle plant response rating	70
Cc1cc[n+]([O-])c([S+]([O-])Cc2c(C(F)(F)F)nn(C)c2Cl)c1 (racemic)	Sowthistle plant response rating	50
Cc1cc[n+]([O-])c(S(=O)(=O)C(C)c2c(C(F)(F)F)nn(C)c2OC(F)F)c1 (stereo not drawn)	Sowthistle plant response rating	100

Note: attention shifts to another entry.
## Input Identify the reported Sowthistle plant response rating for the following entry. Cc1cc[n+]([O-])c([S+]([O-])Cc2c(C(F)(F)F)nn(C)c2OCC(F)(F)F)c1 (racemic)
## Output 100

###

test system: broadleaf signalgrass; assay: Test G preemergence test; assay type: in vivo, Brachiaria platyphylla; settings: 250 g ai/ha, scale 0 to 100
observation-type: Plant response rating, Signalgrass

The following compounds have reported results that may help.
compound	Plant response rating, Signalgrass
Cn1nc(C(F)(F)F)c(C[S+]([O-])c2cccc[n+]2[O-])c1OC(F)F (stereo not shown)	95
Cn1nc(C(F)(F)F)c(CS(=O)(=O)c2ccc(Cl)c[n+]2[O-])c1OC(F)F	100
Cc1cc[n+]([O-])c(S(=O)(=O)C(Cl)c2c(C(F)(F)F)nn(C)c2Cl)c1 (racemic)	75

Note: attention shifts to another entry.
## Input Identify the reported Plant response rating, Signalgrass for the following entry. Cn1nc(C(F)(F)F)c(CS(=O)(=O)c2cccc[n+]2[O-])c1OC(F)F
## Output 90

###

Consider the following molecules and their measured Plant response rating, Johnsongrass readings.
test system: johnsongrass; assay: Test F preemergence test; type: in vivo, Sorghum halepense; settings: Preemergence; 31 g ai/ha; scale 0 to 100
Field format: numeric only.

molecule	system-tested	Plant response rating, Johnsongrass
Cc1cc[n+]([O-])c(S(=O)(=O)C(C)c2c(C(F)(F)F)nn(C)c2OC(F)F)c1 (stereo not shown)	johnsongrass	70

## Input Retrieve Plant response rating, Johnsongrass on johnsongrass; query CC(Oc1c(C[S+]([O-])c2cccc[n+]2[O-])c(C(F)(F)F)nn1C)C(F)(F)F (stereo not shown)
## Output 75

## Input Retrieve Plant response rating, Johnsongrass on johnsongrass; query Cn1nc(C(F)(F)F)c(C[S+]([O-])c2ccc(F)c[n+]2[O-])c1OC(F)F (stereo not shown)
## Output 80

## Input Retrieve Plant response rating, Johnsongrass on johnsongrass; query Cc1cc[n+]([O-])c(S(=O)(=O)C(Cl)c2c(C(F)(F)F)nn(C)c2Cl)c1 (racemic)
## Output 50

###

tested on: bermudagrass; assay: Test C pre-/postemergence test; type: in vivo, Cynodon dactylon; settings: Postemergence, 250 g ai/ha; scale 0 to 100, 0 no effect, 100 complete control
observation-type: Plant response rating, Bermudagrass
Field format: numeric only.

The following compounds have reported results that may help.
compound	Plant response rating, Bermudagrass
Cn1nc(C(F)(F)C(F)(F)F)c(C[S+]([O-])c2cccc[n+]2[O-])c1OCC(F)(F)F (centres unmarked)	50
Cc1cc[n+]([O-])c([S+]([O-])Cc2c(C(F)(F)F)nn(C)c2OC(F)F)c1 (centres unmarked)	80
Cn1nc(C(F)(F)F)c(C[S+]([O-])c2cccc[n+]2[O-])c1OCC(F)(F)C(F)(F)F (centres unmarked)	0

## Input Identify the reported Plant response rating, Bermudagrass for the following entry. Cn1nc(C(F)(F)F)c(C[S+]([O-])c2ccc(F)c[n+]2[O-])c1OCC(F)(F)F (centres unmarked)
## Output 70

## Input Identify the reported Plant response rating, Bermudagrass for the following entry. CC(c1c(C(F)(F)F)nn(C)c1OC(F)F)S(=O)(=O)c1cccc[n+]1[O-] (centres unmarked)
## Output 60

## Input Identify the reported Plant response rating, Bermudagrass for the following entry. Cn1nc(C(F)(F)F)c(C[S+]([O-])c2ccc(F)c[n+]2[O-])c1OC(F)F (centres unmarked)
## Output 40

## Input Identify the reported Plant response rating, Bermudagrass for the following entry. CC(Oc1c(CS(=O)(=O)c2cccc[n+]2[O-])c(C(F)(F)F)nn1C)C(F)(F)F (centres unmarked)
## Output 0

## Input Identify the reported Plant response rating, Bermudagrass for the following entry. CCn1nc(C(F)(F)F)c(C[S+]([O-])c2cccc[n+]2[O-])c1OCC(F)(F)F (racemic)
## Output 90

###

Consider the following molecules and their measured Plant response rating, Velvetleaf readings.
system: velvetleaf; assay: Test A pre-/postemergence greenhouse test; type: in vivo, Abutilon theophrasti; settings: Postemergence, 125 g ai/ha; 0 to 100 scale where 0 is no effect and 100 is complete control
Field format: numeric only.

The following molecules have reported results that may help.
molecule	system-tested	Plant response rating, Velvetleaf
Cc1cc[n+]([O-])c(S(=O)(=O)Cc2c(C(F)(F)F)nn(CC(F)(F)F)c2Cl)c1 [Compound 49]	velvetleaf	20
Cc1cc[n+]([O-])c(S(=O)(=O)Cc2c(C(F)(F)F)nn(C)c2OCC(F)(F)C(F)(F)F)c1 [Compound 98]	velvetleaf	0

## Input Identify the reported Plant response rating, Velvetleaf for the following entry. CCCc1cc[n+]([O-])c(S(=O)(=O)Cc2c(C(F)(F)F)nn(C)c2OC(F)F)c1 [Compound 117]
## Output 50

## Input Identify the reported Plant response rating, Velvetleaf for the following entry. Cn1nc(C(F)(F)F)c(C[S+]([O-])c2ccc(F)c[n+]2[O-])c1OCC(F)(F)F (stereo not shown) [Compound 67]
## Output 60

## Input Identify the reported Plant response rating, Velvetleaf for the following entry. Cn1nc(C(F)(F)C(F)(F)F)c(C[S+]([O-])c2ccc(Cl)c[n+]2[O-])c1OCC(F)(F)F (stereo not shown) [Compound 92]
## Output 50

## Input Identify the reported Plant response rating, Velvetleaf for the following entry. Cc1cc[n+]([O-])c(S(=O)(=O)C(Cl)c2c(C(F)(F)F)nn(CC(F)(F)F)c2Cl)c1 (stereo not shown) [Compound 56]
## Output 0

## Input Identify the reported Plant response rating, Velvetleaf for the following entry. O=S(=O)(Cc1c(C(F)(F)F)nn(CC(F)(F)F)c1Cl)c1ccc(Cl)c[n+]1[O-] [Compound 50]
## Output 0
